# Test system: PC-3 prostate
# measurement-description: NCI tumour cell line growth inhibition, 48 h
endpoint-name: TGI (µM)
Answers are plain numbers, in µM.

# structure-smiles-string, reported
data = [
    ("COc1ccc(/C=C2\\Sc3nnc(C)n3N=C2c2cc(F)c(Cl)cc2Cl)cc1OC", 37.7),
]

Each compound below has a recorded value; state its TGI.
1. O=c1c(/C=C/c2c(O)ccc3ccccc23)nnc2sc(-c3cccc([N+](=O)[O-])c3)nn12
2. C=C1C[C@@H]2C/C=C/C(=O)C/C(C)=C\C=C\C(=O)O[C@H](C=O)C/C(C)=C/[C@H](C1)O2

Reply:
[46.5, 21.4]

---

Could you please report measured TGI for the items listed next?
# System: IGROV1 ovarian
# measurement-description: NCI tumour cell line growth inhibition, 48 h

# compound, reported
data = [
    ("COc1cc(C(=O)O[C@H](C(=O)NCCNC(=O)[C@@H](OC(=O)c2cc(OC)cc3c(C)cccc23)[C@]2(C)CO2)[C@]2(C)CO2)c2cccc(C)c2c1", "5.28 µM"),
    ("O=c1[nH]nc(-c2ccc([N+](=O)[O-])cc2)n1/N=C/c1ccc([N+](=O)[O-])cc1", "> 100 µM"),
    ("O=C(O)C(F)(F)C(F)(F)C(F)(F)C(F)(F)C(=O)O", "> 100 µM"),
]

Each compound below has a recorded value; state its TGI.
1. C/C=C(\C)C(=O)N[C@H]1[C@@H](OC(C)=O)C[C@]2(C)C3CC[C@@]4(C)C(CC[C@@H]4C(C)N(C)C)C3CCC2[C@H]1O (stereo partly drawn)
2. CCN(CC)c1ccc2c(c1)Oc1ccc(N(C(C)=O)c3ccccc3)cc1C21OC(=O)c2ccccc21 (stereo not drawn)
3. N#CCc1ccc(C(C#N)/C(CCCC(=O)Nc2cccc([N+](=O)[O-])c2)=N\NC(=O)NN)cc1 (stereo not drawn)

Reply:
["16.8 µM", "> 100 µM", "> 100 µM"]

Each compound below has a recorded value; state its TGI.
1. O=C(c1cc(F)c(Cl)cc1Cl)N1N=C(c2ccccc2)CC1(O)c1ccccc1 (stereo not drawn)
2. Cn1nc(-c2ccccc2)c(N=[N+]=[N-])cc1=O

Reply:
1: 36.7 µM; 2: > 100 µM

---

Could you please report measured TGI for the items listed next?
# System: SNB-19 CNS
# measurement-description: NCI tumour cell line growth inhibition, 48 h

Worked examples follow.
# compound, assay-system, TGI
rows = [
    ("OC12C3C4CC5C(C4[C@@H]1Br)C2[C@@](O)(c1c(F)c(F)c(F)c(F)c1F)C53 (stereo not given in full)", "SNB-19 CNS", "> 100 µM"),
    ("COc1ccc2c(c1)nc(N)c1c3cc(OC)c(OC)cc3cn21", "SNB-19 CNS", "19.1 µM"),
    ("Cc1nc2c(=O)[nH]c(=O)n(C)c2[nH]c1=O", "SNB-19 CNS", "> 100 µM"),
    ("O=C1CSC(c2cccc(Cl)c2)N1c1c(O)c(Cl)cc(Br)c1Cl (stereo not given)", "SNB-19 CNS", "> 100 µM"),
    ("NNC(=O)Cc1cccnc1", "SNB-19 CNS", "> 100 µM"),
    ("CCCCCCCCCCC(C)CCCCCCC(=O)OCC(COP(=O)([O-])OCC[N+](C)(C)C)OC(=O)CCCCCCC(C)CCCCCCCCCC (stereo not given)", "SNB-19 CNS", "> 100 µM"),
    ("COc1ccc2c([nH]c3cc(O)c(C)cc32)c1C=O", "SNB-19 CNS", "> 25 µM"),
    ("C[C@@H]1O[C@@H](O[C@@H]2[C@@H](O)[C@H](OCCc3ccc(O)c(O)c3)O[C@H](COC(=O)/C=C/c3ccc(O)c(O)c3)[C@H]2O)[C@H](O)[C@H](O)[C@H]1O", "SNB-19 CNS", "> 100 µM"),
    ("S=c1[nH]c(=S)c2sc(=S)n(-c3ccccc3)c2[nH]1", "SNB-19 CNS", "> 100 µM"),
]

Task item: Quick one: TGI for "c1ccc2c(c1)CCN(C1=NCCO1)C2" ?
Reply: > 10 µM

// data source = PubChem BioAssay (NCI)
